molecular target: human GLP-1 receptor (human, UniProt P43220 24-463); assay: cell-based or functional assay
Starred links: 1 amine or outer side, 2 acyl side, 3 side chain; linkers in the order of their positions; H or OH if unused. Non-standard residues stand in square brackets, D forms with d. Groups on a side chain read outwards from the residue. *: point of attachment. Butyryl(4-SO2NHCO(CH2)16Tz) = O=C(CCCCCCCCCCCCCCCCc1nnn[nH]1)NS(=O)(=O)CCCC(=O)*; C20 diacid = O=C(O)CCCCCCCCCCCCCCCCCCC(=O)*; γGlu = O=C(O)[C@H](CCC(=O)[*:2])N[*:1]; Trx = NC[C@H]1CC[C@H](C(=O)O)CC1; AEEA = NCCOCCOCC(=O)O; Aib = CC(C)(N)C(=O)O
quantity-kind: Human GLP-1R potency [EC50 (pM)]
The reply should be a number in pM, with the unit left off.

Look over these answered cases.
binder	unit-string	meas-value
Compound 0440 (peptide) peptide: H[Aib]EGTFTSDK([AEEA-AEEA-γGlu-Trx-C20 diacid])SSYLEEQAAREFIEWLVRGRGEASELSTAALGRLSAELHELATLPRTETGSGSP-NH2	pM	5.7
Compound 0663 (peptide) peptide: H[Aib]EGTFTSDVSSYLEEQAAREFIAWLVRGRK([AEEA-AEEA-AEEA-AEEA-γGlu-C20 diacid])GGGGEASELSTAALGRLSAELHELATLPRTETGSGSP-NH2	pM	3.2
Compound 0103 (peptide) peptide: H[Aib]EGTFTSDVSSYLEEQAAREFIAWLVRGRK(Butyryl(4-SO2NHCO(CH2)16Tz))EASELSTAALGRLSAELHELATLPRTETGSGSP-NH2	pM	28.1

Moving on to another binder below.
Form field: reported Human GLP-1R potency [EC50 (pM)] of Compound 0502 (peptide) peptide: H[Aib]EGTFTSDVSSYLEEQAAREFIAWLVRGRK([AEEA-AEEA-γGlu-C20 diacid])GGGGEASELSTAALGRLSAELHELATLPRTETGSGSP-NH2
8.4
